For each entry below, report its max response value.
assay: qHTS Assay for Lipid Storage Modulators (AID 1519); details: Drosophila S3 cells, BODIPY lipid droplet/cell ratio, laser cytometry; measured here: cell count channel max response; cells loaded with oleic acid
Records with an inconclusive call do not appear.
Could you give me the number in %? Just the number is fine.

// sample CC[C@H]1CN2CC[C@@H]1C[C@H]2[C@@H](O)c1ccnc2ccc(OC)cc12 , its max response was -1.96

// sample CC(C)(C#N)O[C@H]1OC(CO)C(O)C(O)C1O (stereo not given in full) , its max response was 13.6

// sample C[C@]12CCC3C(CC[C@]4(O)CC(O)CC[C@@]34C=O)[C@]1(O)CCC2C1=CC(=O)OC1 (stereo not given in full) , its max response was 12.5

// sample C=C1C/C(=C\C)C(=O)O[C@@H]2CCN3CC=C(COC(=O)[C@@]1(C)O)[C@H]23 , its max response was 8.7

// sample Cc1noc(C)c1C(=O)N1CCC[C@@]2(CCN(CC(C)C)C2)C1 , its max response was 6.03

// sample COc1ccc2c(c1O)-c1c(OC)c(OC)cc3c1[C@H](C2)N(C)CC3 , its max response was 5.35

// sample O=c1ccc2cc(O[C@H]3O[C@@H](CO)[C@@H](O)[C@@H](O)[C@@H]3O)c(O)cc2o1 , its max response was 1.01

// sample CNC(=O)O/N=C/C(C)(C)SC , its max response was 14.3

// sample CC(=O)O[C@H]1CC[C@@]2(C)C(=CC[C@@H]3[C@H]2CC[C@]2(C)C(=O)CC[C@H]32)C1 , its max response was -9.47

// sample C[N+]1=Cc2cc3c(cc2CC1)OCO3 , its max response was 15.4

// sample C=C1[C@@H]2C[C@@]3([C@H]1O)[C@H]1C[C@@H]4[C@@]5(C)CC[C@H](O)[C@]4([C@H]1N(CC)C5)[C@H]3C[C@H]2O , its max response was -11.5

// sample Cc1ccccc1-c1cncnc1NCCc1cnc[nH]1 , its max response was 9.82

// sample C/C=C(\C)C(=O)OC1CC(OC(C)=O)[C@@]2(C(=O)OC)COC3C2[C@@]12CO[C@](O)(C(=O)OC)C2[C@](C)(C12OC1(C)C1CC2OC2OC=C[C@]21O)C3O (stereo not given in full) , its max response was -9.57

// sample O=C1C(Cl)=C(Cl)C(=O)C(Cl)=C1Cl , its max response was -3.14

// sample NC(N)=N/N=C\c1c(Cl)cccc1Cl , its max response was 12.3

// sample O=C(c1ccncc1)N1CCC2(CC1)CN(Cc1ccccc1)C2 , its max response was -4.26

// sample CCN1C[C@]2(C)CC[C@H](O)[C@@]34[C@@H]5CC6[C@@H](OC)C[C@@](O)([C@@H]5[C@@H]6O)[C@H](C[C@@H]23)[C@H]14 , its max response was -6.13

// sample Cc1noc(C)c1C(=O)N1CCC2(CCCN(CC(C)C)C2)CC1 , its max response was -5.22

// sample CCCN(CCC)C(=O)Cc1c(-c2ccc(Cl)cc2)nc2c(Cl)cc(Cl)cn12 , its max response was -21.2

// sample C=C1C2CCC3[C@@](CC[C@@H]4C(C(=O)O)CC(OC5OC(CO)C(OS(=O)(=O)O)C(OS(=O)(=O)O)C5OC(=O)CC(C)C)C[C@]34C)(C2)C1O (stereo not given in full) , its max response was -12

// sample CCCCC/C=C\C/C=C\C/C=C\C/C=C\CCCC(=O)O , its max response was 20.2

// sample CC1/C=C/C=C/CC/C=C/C=C/C=C/C=C/C(OC2OC(C)C(O)C(N)C2O)CC2O[C@](O)(CC(O)C(O)CCC(O)CC(O)CC(O)CC(=O)OC(C)C(C)C1O)CC(O)C2C(=O)O (stereo not given in full) , its max response was 17

// sample C[N+]1([O-])[C@@H]2CC[C@H]1CC(OC(=O)[C@@H](CO)c1ccccc1)C2 (stereo not given in full) , its max response was 1.61

// sample CCN1C[C@@]2(COC)C3[C@@H](OC)C4[C@@H]1[C@@]3(C1C[C@@]3(O)[C@H](OC(=O)c5ccccc5)C1[C@]4(OC(C)=O)[C@@H](O)[C@@H]3OC)[C@@H](OC)C[C@H]2O (stereo not given in full) , its max response was -8.1

// sample CCC(CO)NC(=O)[C@@H]1C=C2c3cccc4[nH]cc(c34)C[C@H]2N(C)C1 (stereo not given in full) , its max response was -10.2

// sample CN1[C@H]2CC(=O)C[C@@H]1[C@@H](O)C2 , its max response was -20.9

// sample CCC[C@@](C)(COC(N)=O)COC(=O)NC(C)C , its max response was 10.2

// sample CC(=O)O[C@H]1C[C@@H](O[C@@H]2[C@H](C)O[C@H](O[C@@H]3[C@H](C)O[C@H](O[C@@H]4CC[C@@]5(C)[C@@H](CC[C@]6(C)[C@]5(C)C[C@H](O)[C@]5(C)[C@@H](C7=CC(=O)OC7)CC[C@@]56O)C4)C[C@@H]3O)C[C@@H]2O)O[C@@H](C)[C@H]1O[C@H]1O[C@@H](CO)[C@@H](O)[C@@H](O)[C@@H]1O , its max response was -6.91

// sample CC1=CC(=O)C2=C(C)C[C@@H](O)[C@@H]3[C@@H](OC(=O)[C@H]3C)[C@H]12 , its max response was -12.9

// sample O=C(Nc1ccccc1)N1CC[C@@]2(CCCNC2)C1 , its max response was 4.57

// sample CC1=C2C3OC(=O)C(C)C3CC[C@@]2(C)C=CC1=O (stereo not given in full) , its max response was 15.1

// sample COc1ccc2c(c1)[C@@]13CCCCC1[C@@H](C2)N(C)CC3 (stereo not given in full) , its max response was 4.27

// sample c1cc(CN2CC3(CCNCC3)C2)ccn1 , its max response was 6.79

// sample C[C@@]12CC[C@H]3[C@@H](CC[C@]4(O)C[C@H](O)CC[C@@]34C=O)[C@]1(O)CC[C@@H]2C1=CC(=O)OC1 , its max response was 6.59

// sample CN1CCC2(CC1)CCN(C(=O)c1ccco1)CC2 , its max response was 21.1
